Biological target: T1, ZFP SBS#719 (synthetic)
T1 chain: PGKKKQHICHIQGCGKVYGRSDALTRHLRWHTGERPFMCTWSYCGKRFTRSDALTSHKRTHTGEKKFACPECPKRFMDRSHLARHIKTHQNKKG
Test: EMSA
Conditions: tags: MBP fusion
pKd: −log10 of the molar value.

# binder, pKd
records = [
    ("GGCATGGTGG (dsDNA) DNA 1: GGCATGGTGG DNA 2: CCACCATGCC", 7.70),
]
